These data points were gathered from patent US20260217796A1.

target-or-system: T1, recombinant AAV2 virus-like particles (VLPs) of capsid proteins VP1, VP2 and VP3 (AAV2, UniProt P03135 1-735; P03135 139-735; P03135 203-735)
T1 construct: also called AAV2 VLP; antigen
T1 sequence (P03135 whole entry, chain 1 of 3): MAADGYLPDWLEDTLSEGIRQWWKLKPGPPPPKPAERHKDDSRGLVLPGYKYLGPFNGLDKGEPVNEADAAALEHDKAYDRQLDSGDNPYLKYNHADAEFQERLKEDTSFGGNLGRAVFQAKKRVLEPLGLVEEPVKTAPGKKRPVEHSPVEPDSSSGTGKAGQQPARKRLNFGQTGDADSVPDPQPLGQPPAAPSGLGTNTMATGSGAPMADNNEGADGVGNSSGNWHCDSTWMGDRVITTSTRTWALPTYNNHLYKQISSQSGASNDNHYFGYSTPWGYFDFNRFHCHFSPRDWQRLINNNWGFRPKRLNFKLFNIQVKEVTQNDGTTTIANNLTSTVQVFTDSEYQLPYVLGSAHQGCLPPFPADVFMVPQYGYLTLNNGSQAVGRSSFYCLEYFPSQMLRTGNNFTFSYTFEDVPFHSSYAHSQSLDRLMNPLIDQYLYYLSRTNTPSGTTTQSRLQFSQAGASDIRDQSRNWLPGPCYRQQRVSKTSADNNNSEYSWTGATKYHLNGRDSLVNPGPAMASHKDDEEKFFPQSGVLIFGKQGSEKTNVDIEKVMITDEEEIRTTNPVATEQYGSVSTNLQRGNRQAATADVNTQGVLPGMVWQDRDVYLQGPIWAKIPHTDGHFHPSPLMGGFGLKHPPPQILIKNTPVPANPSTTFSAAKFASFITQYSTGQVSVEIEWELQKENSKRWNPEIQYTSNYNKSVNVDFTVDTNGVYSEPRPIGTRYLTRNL
T1 sequence (P03135 139-735, tags left off, chain 2 of 3): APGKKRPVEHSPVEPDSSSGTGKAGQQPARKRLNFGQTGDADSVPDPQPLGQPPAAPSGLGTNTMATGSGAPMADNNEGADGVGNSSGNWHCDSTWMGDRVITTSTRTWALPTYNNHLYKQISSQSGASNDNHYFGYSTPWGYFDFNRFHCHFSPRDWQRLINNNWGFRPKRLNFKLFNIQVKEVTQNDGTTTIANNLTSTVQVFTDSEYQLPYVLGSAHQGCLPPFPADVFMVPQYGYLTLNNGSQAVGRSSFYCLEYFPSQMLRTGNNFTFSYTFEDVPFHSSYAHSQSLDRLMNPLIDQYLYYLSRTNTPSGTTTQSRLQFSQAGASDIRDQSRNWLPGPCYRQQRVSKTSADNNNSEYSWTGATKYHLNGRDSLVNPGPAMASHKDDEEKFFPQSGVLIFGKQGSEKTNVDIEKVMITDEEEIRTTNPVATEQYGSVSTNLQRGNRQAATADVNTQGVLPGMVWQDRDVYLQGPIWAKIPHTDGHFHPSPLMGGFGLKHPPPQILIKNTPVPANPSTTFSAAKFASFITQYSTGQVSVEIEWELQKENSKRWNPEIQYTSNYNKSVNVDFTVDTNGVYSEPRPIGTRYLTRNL
T1 sequence (P03135 203-735 limits assumed, chain 3 of 3): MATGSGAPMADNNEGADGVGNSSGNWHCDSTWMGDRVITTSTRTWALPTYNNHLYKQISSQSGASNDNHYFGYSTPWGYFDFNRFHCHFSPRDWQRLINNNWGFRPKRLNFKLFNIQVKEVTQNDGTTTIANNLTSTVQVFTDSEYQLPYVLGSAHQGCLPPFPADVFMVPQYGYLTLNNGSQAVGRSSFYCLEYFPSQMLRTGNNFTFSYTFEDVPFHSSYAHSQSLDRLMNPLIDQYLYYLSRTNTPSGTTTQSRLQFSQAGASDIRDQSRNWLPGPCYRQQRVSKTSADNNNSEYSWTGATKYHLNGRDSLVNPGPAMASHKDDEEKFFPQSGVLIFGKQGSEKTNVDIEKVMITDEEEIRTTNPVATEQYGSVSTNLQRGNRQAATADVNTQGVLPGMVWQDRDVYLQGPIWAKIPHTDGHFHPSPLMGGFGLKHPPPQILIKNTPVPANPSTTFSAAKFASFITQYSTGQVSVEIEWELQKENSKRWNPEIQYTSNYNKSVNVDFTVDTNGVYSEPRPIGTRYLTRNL
method-summary: indirect ELISA, plate coated with 1 ug/mL AAV2 VLP, 3-fold antibody dilutions from 1 ug/mL
Entries and their measured EC50 follow.
endpoint-name: EC50 (ng/mL)

{"columns": ["binder", "measure-unit", "quantitative-readout"],
 "data": [
  ["15G4-4 (antibody, V domains shown, Expressed recombinantly in ExpiCHO-S cells, purified on protein A as IgG and detected with anti-rabbit IgG (Fc-specific); also called anti-AAV2 rabbit monoclonal antibody 15G4-4; combination B) VH: QSVEESGGRLVTPGTPLTLTCTVSGFSLNSYTVNWVRQAPGKGLEWIGFISGGSGITNYATWAKGRFTISKTSTTVDLKLPSPTTEDTATYFCARGRYPGYGGDDYEDYYFNLWGQGTLVTVSS VL: DVVMTQTQASVSAAVGGTVTIKCQASESIGSYLAWYQQKPGQPPRLLIYQASTLASGVSSRFKGSGSGTQFTLTISDLECDDAATYYCQGEFSCDGAHCNAFGGGTEVVVK", "ng/mL", 1.77],
  ["19E10-3 (antibody, V domains shown, Expressed recombinantly in ExpiCHO-S cells, purified on protein A as IgG and detected with anti-rabbit IgG (Fc-specific); also called anti-AAV2 rabbit monoclonal antibody 19E10-3; combination C) VH: QSLEESGGDLVKPGSSLTLTCTASRFSFSGDYDMCWVRQAPGKGLEWIACIGAGDAITYYTNWARGRFTITYTSSTTMTLQLTSLTVADTAAYFCAAGADFAFKLWGPGTLVTVSS VL: DIVMTQTPASVEAAVGGTVTIKCQASQSIMSLLAWYQQKPGQPPKLLIYEASKLASGVPSRFSGSGSGTQFTLTISDLECADAATYYCQGYVESSGRHYRFWAFGGGTEVVVK", "ng/mL", 3.94],
  ["33G5-3 (antibody, V domains shown, Expressed recombinantly in ExpiCHO-S cells, purified on protein A as IgG and detected with anti-rabbit IgG (Fc-specific); also called anti-AAV2 rabbit monoclonal antibody 33G5-3; Biotin-33G5-3) VH: QSVEESGGRLVTPGTPLTLTCTVSGIDLSSYAMSWVRQAPGKGLEWIGTINSDNYRYFGSWAKGRFTISKTSTTVDLKITSPTTEDTATYFCARQRGTSSGNAMDLWGPGTLVTVSS VL: DVVMTQTPASVSAALGGTVTIKCQASQSIGSYLNWYQQKPGQPPKLLIYAASTLAYGVSSRFRGSGSGTEFTLTISDLECADAATYYCQTYYISDSSSHVFGGGTEVVVK", "ng/mL", 1.62],
  ["8H8-1 (antibody, V domains shown, Expressed recombinantly in ExpiCHO-S cells, purified on protein A as IgG and detected with anti-rabbit IgG (Fc-specific); also called anti-AAV2 rabbit monoclonal antibody 8H8-1; combination A) VH: QSLVESGGGLVQPEGSLTLTCTASGFSFSNVYYMCWVRQAPGKGPDWIACIYINADSTYYPSWATGRFTISKTSSTTVTLQMTSLTAADTATYFCARVAAYYDVYFNLWGPGTVVTVSS VL: AVVMTQTASPVSAAVGGTVTINCQASQSISSSYLSWYQQKPGQPPKLLIYYASILTSGVPSRFKGSGDGTEYSLTISGVQCDDAATYYCLYGRYSGASIDTVFGGGTEVVVK", "ng/mL", 1.46]
]}
